- System: SF-539 CNS
- protocol_text: NCI tumour cell line growth inhibition, 48 h; in the data active = GI50 below about 0.43 µM; inactive = the rest
Outcome codes: active, inactive

| molecule | assigned_category |
| --- | --- |
| O=C(/C=C/c1cccnc1)c1ccccc1O | inactive |
| O=S(=O)(NCCCNc1cc(-c2cn(-c3ccccc3)nc2-c2cccc(O)c2)ccn1)c1ccc(Cl)cc1 | inactive |
| CC[C@@]1(O)C(=O)OCc2c1cc1n(c2=O)Cc2c-1nc1ccccc1c2/C=N/OC(C)(C)C | active |
| C=C(CN1CCN(c2cccc(F)c2)CC1)c1ccc(C(=O)Nc2ccccc2N)cc1 | inactive |
| Cc1ccc(NC(=O)c2nc(S(C)=O)oc2-c2ccc(F)cc2)cc1Nc1nccc(-c2cccnc2)n1 (stereo unspecified) | inactive |
| O=c1cccc(C#CC#C/C=C/CO)o1 | inactive |

----------
- System: CAKI-1 renal
- protocol_text: NCI tumour cell line growth inhibition, 48 h
result_type: TGI (µM)

| molecule | measure_unit | limit_sign | value_reported |
| --- | --- | --- | --- |
| CCNCCCCNCC | µM | > | 3750 |
| CCCN1CCN(c2ccc3nc(-c4ccc5nc(-c6ccc(OCC)c(OCC)c6)[nH]c5c4)[nH]c3c2)CC1 | µM | = | 3.28 |
| COc1ccc(-c2coc3cc(OC)cc(O)c3c2=O)cc1 | µM | > | 100 |
| CN(C)CCC1(C2=CCCC2)CC/C(=C\c2ccccc2)C1=O (stereo not given) | µM | = | 26.3 |
| CCN1CCN(C(=O)[C@]23CCC(C)(C)C[C@@H]2C2=CC[C@@H]4[C@@]5(C)C/C(=C/c6cccnc6)C(=O)C(C)(C)[C@@H]5CC[C@@]4(C)[C@]2(C)CC3)CC1 | µM | = | 11.8 |

----------
- Test system: OVCAR-4 ovarian
- protocol_text: NCI tumour cell line growth inhibition, 48 h; in the data active = GI50 below about 0.43 µM; inactive = the rest
*1 amine or outer side, *2 acyl side, *3 side chain or, on linkers, in order; H or OH if unused. Where a SMILES comes first, the peptide text is derived from it. Bridges are numbered along the chain shown (N, C = ends). [ ]: non-standard residue; d: D form. The star is where a group is joined. Phe(3-Me) = Cc1cccc(C[C@H](N)C(=O)O)c1; NH(4-Cl-2-F-phenyl) = Fc1cc(Cl)ccc1N*; Pro(4R-Me) = C[C@H]1CN[C@H](C(=O)O)C1; Propanoyl(3-NMe2) = CN(C)CCC(=O)*; Hyp = O=C(O)[C@@H]1C[C@@H](O)CN1; aThr = C[C@H](O)[C@H](N)C(=O)O; Pip = O=C(O)[C@@H]1CCCCN1; CO = O=C([*:1])[*:2]
Classes used: class 1 = active, class 0 = inactive

| compound | assigned_category |
| --- | --- |
| O=C1C(Cl)=C(Nc2cccc(O)c2)C(=O)N1c1cccc(Cl)c1Cl | class 0 |
| Cc1cccc(C[C@H](NC(=O)Nc2ccc(Cl)cc2F)C(=O)N[C@@H]2C(=O)N3C[C@H](OC(=O)CCN(C)C)C[C@H]3C(=O)N3CCCC[C@H]3C(=O)N[C@@H](C)C(=O)N3C[C@H](C)C[C@H]3C(=O)O[C@H]2C)c1 ({NH(4-Cl-2-F-phenyl)-CO}-[Phe(3-Me)][aThr][Hyp](Propanoyl(3-NMe2))[Pip]A[Pro(4R-Me)]; ester 2-C) | class 1 |
| CC(=O)Nc1sc2c(c1-c1nc3ccccc3s1)CNC2 | class 0 |
| CCc1ccc(Nc2cc(C)nc3nc(C)nn23)cc1 | class 0 |
| C[C@@]1(N2C(=O)OC[C@@H]2c2ccccc2)C(=O)N([C@H](CC(=O)N2CCC(N3CCCCC3)CC2)C(=O)NCc2cccc(C(F)(F)F)c2)[C@@H]1/C=C/c1ccccc1 | class 0 |
| C[n+]1ccc(-c2c3nc(c(-c4ccc5c(ccc[n+]5C)c4)c4ccc([nH]4)c(-c4cc[n+](C)cc4)c4nc(c(-c5ccc6c(ccc[n+]6C)c5)c5ccc2[nH]5)C=C4)C=C3)cc1 | class 0 |
